Reference source for all entries: patent US7288537B2

Molecular target: alpha-1 adrenergic receptor
Experiment: alpha-1 adrenergic receptor radioligand binding assay ([125I]-HEAT, cerebral cortex membranes)
Details: rat cerebral cortex membranes; radioligand used at 40 pM
assay-readout: pKd
The scale used: pKd is minus the common logarithm of the concentration in molar units.

Enquiry: Requested read-out: pKd. Entry: O=C1c2ccccc2CCC1CNCCc1ccc(O)c(I)c1 (stereo not shown) [[^125I]-HEAT]
Return: 10.23
